meta.source: patent US12415789B2

System: HaCat cells
Experiment: Viability assay (CellTiter Blue), HaCat cells, hypoxia vs normoxia
Format: cell-based, human
Conditions: hypoxic conditions, read-out: IC50 (μM) [1]
MEASUREMENT LABEL: IC50

Returns the measured IC50 for the input compound. Input: C=C1C=CC(=O)N(C)CC(=O)NCCOc2cc(CCCCCCCCCCCC)ccc2C(=O)N1 [PH466] 3.9 µM

###

Test system: HaCat cells
Assay: Viability assay (CellTiter Blue), HaCat cells, hypoxia vs normoxia
Assay type: cell-based, human
Settings: normoxic conditions, read-out: IC50 (μM) [2]
MEASUREMENT LABEL: IC50 (µM)
Give the value in µM but do not write µM after it.

Fill in the recorded IC50 for this compound, with HaCat cells as test system: C=C1C=CC(=O)N(C)CC(=O)NCCOc2cc(CCCCCCCCCCCC)ccc2C(=O)N1 4.9

###

System: PANC-1 cells
Assay: Viability assay (CellTiter Blue), PANC-1 cells, hypoxia vs normoxia
Assay type: cell-based, human
Conditions: PANC1, hypoxic conditions; read-out: IC50 (μM) [1]
Criterion: IC50 strictly under 3 µM. Met: true. Not met: false.

Would you please look over these solved cases?
CCCCCCCCCCCCc1ccc2c(c1)OC[C@H](CCCCNC(=O)OC(C)(C)C)NC(=O)CN(C)C(=O)/C=C/[C@H](CO)NC2=O [PH908] : false
CCCCCCCCCCCCc1ccc2c(c1)OCCNC(=O)CN(C)C(=O)/C=C/C(CO)NC2=O (centres unmarked) [PH462] : false
C=C1/C=C/C(=O)N(C)CC(=O)N[C@@H](CCCCNC(=O)OC(C)(C)C)COc2cc(CCCCCCCCCCCC)ccc2C(=O)N1 [PH911] : true

Identify whether the molecule C=C1/C=C/C(=O)N(C)CC(=O)N[C@@H](CC(=O)N2CCOCC2)COc2cc(CCCCCCCCCCCC)ccc2C(=O)N1 [PH741] records IC50 below 3 µM. false

###

Test system: HCT116 cells
Assay: Viability assay (CellTiter Blue), HCT116 cells, hypoxia vs normoxia
Format: cell-based, human
Details: HCT116, hypoxic conditions; read-out: IC50 (μM) [1]
The entries below are paired with their reported log10 IC50.
Log scale reminder: IC50 in µM, then log10 taken.

C=C1/C=C/C(=O)N(C)CC(=O)N[C@@H](CC(=O)NC2CC2)COc2cc(CCCCCCCCCCCC)ccc2C(=O)N1 : 0.15
CCCCCCCCCCCCc1ccc2c(c1)OC[C@H](CCCCNC(=O)OC(C)(C)C)NC(=O)CN(C)C(=O)/C=C/[C@H](CO)NC2=O : 1.17
C=C1/C=C/C(=O)N(C)CC(=O)N2CCC[C@H]2COc2cc(CCCCCCCCCCCC)ccc2C(=O)N1 : 0.41
C=C1/C=C/C(=O)N(C)CC(=O)N[C@@H](CC(=O)N2CCOCC2)COc2cc(CCCCCCCCCCCC)ccc2C(=O)N1 : 0.52
C=C1/C=C/C(=O)N(C)CC(=O)N2CC(F)(F)C[C@H]2COc2cc(CCCCCCCCCCCC)ccc2C(=O)N1 : 0.57
C=C1/C=C/C(=O)N(C)CC(=O)N[C@@H](CCCCNC(=O)OC(C)(C)C)COc2cc(CCCCCCCCCCCC)ccc2C(=O)N1 : -0.14
C=C1/C=C/C(=O)N(C)CC(=O)N[C@@H](CC(=O)OC)COc2cc(CCCCCCCCCCCC)ccc2C(=O)N1 : 0.70
C#CCNC(=O)C[C@H]1COc2cc(CCCCCCCCCCCC)ccc2C(=O)NC(=C)/C=C/C(=O)N(C)CC(=O)N1 : 0.62

Turning to the following molecule.
Returns the measured log10 IC50 for the input molecule. Input: C=C1C=CC(=O)N(C)CC(=O)NCCOc2cc(CCCCCCCCCCCC)ccc2C(=O)N1 -0.01

###

System: PANC-1 cells
Test: Viability assay (CellTiter Blue), PANC-1 cells, hypoxia vs normoxia
Format: cell-based, human
Details: PANC1, normoxic IC50 / hypoxic IC50
Criterion: Index [3] Selectivity index (IC50 [2]/IC50 [1]) strictly under 5. Met: rule met. Not met: rule not met.

Identify whether the compound Nc1n[n+]([O-])c2ccccc2[n+]1[O-] [Tirapazamine, reference compound] records Index [3] Selectivity index (IC50 [2]/IC50 [1]) below 5. rule not met

Further, for Cn1c(COP(=O)(NCCBr)NCCBr)cnc1[N+](=O)[O-] [TH302, Evofosfamide, reference compound] ? rule not met

Further, for C=C1/C=C/C(=O)N(C)CC(=O)N2CCC[C@H]2COc2cc(CCCCCCCCCCCC)ccc2C(=O)N1 [PH921] ? rule not met

Further, for C=C1/C=C/C(=O)N(C)CC(=O)N[C@@H](CCCCNC(=O)OC(C)(C)C)COc2cc(CCCCCCCCCCCC)ccc2C(=O)N1 [PH911] ? rule not met

Further, for C=C1C=CC(=O)N(C)CC(=O)NCCOc2cc(CCCCCCCCCCCC)ccc2C(=O)N1 [PH466] ? rule met

Further, for C#CCNC(=O)C[C@H]1COc2cc(CCCCCCCCCCCC)ccc2C(=O)NC(=C)/C=C/C(=O)N(C)CC(=O)N1 [PH845] ? rule not met

Further, for C=C1/C=C/C(=O)N(C)CC(=O)N2CC(F)(F)C[C@H]2COc2cc(CCCCCCCCCCCC)ccc2C(=O)N1 [PH905] ? rule met

Further, for C=C1/C=C/C(=O)N(C)CC(=O)N[C@@H](CC(=O)N2CCOCC2)COc2cc(CCCCCCCCCCCC)ccc2C(=O)N1 [PH741] ? rule met

Further, for C=C1/C=C/C(=O)N(C)CC(=O)N[C@@H](CC(=O)NC2CC2)COc2cc(CCCCCCCCCCCC)ccc2C(=O)N1 [PH906] ? rule not met

Further, for C=C1/C=C/C(=O)N(C)CC(=O)N[C@@H](CC(=O)OC)COc2cc(CCCCCCCCCCCC)ccc2C(=O)N1 [PH832] ? rule not met

###

Tested on: BxPC3 cells
Assay: Viability assay (CellTiter Blue), BxPC3 cells, hypoxia vs normoxia
Format: cell-based, human
Settings: BxPC3, hypoxic conditions; read-out: IC50 (μM) [1]
The entries below are paired with their reported IC50.
Give the value in µM but do not write µM after it.

Look over these answered cases.
C=C1/C=C/C(=O)N(C)CC(=O)N2CCC[C@H]2COc2cc(CCCCCCCCCCCC)ccc2C(=O)N1 : 6
C=C1/C=C/C(=O)N(C)CC(=O)N[C@@H](CCCCNC(=O)OC(C)(C)C)COc2cc(CCCCCCCCCCCC)ccc2C(=O)N1 : 1.2
C=C1/C=C/C(=O)N(C)CC(=O)N2CC(F)(F)C[C@H]2COc2cc(CCCCCCCCCCCC)ccc2C(=O)N1 : 5.5

Returns the measured IC50 for the input compound. Input: C=C1C=CC(=O)N(C)CC(=O)NCCOc2cc(CCCCCCCCCCCC)ccc2C(=O)N1 3.4

###

The entries below are paired with their reported Index [3] Selectivity index (IC50 [2]/IC50 [1]).
System: HCT116 cells
Assay: Viability assay (CellTiter Blue), HCT116 cells, hypoxia vs normoxia
Type: cell-based, human
Settings: HCT116, normoxic IC50 / hypoxic IC50
// return just the number, without any unit appended

Look over these answered cases.
C=C1/C=C/C(=O)N(C)CC(=O)N[C@@H](CCCCNC(=O)OC(C)(C)C)COc2cc(CCCCCCCCCCCC)ccc2C(=O)N1 [PH911] : 4.2
C=C1/C=C/C(=O)N(C)CC(=O)N2CCC[C@H]2COc2cc(CCCCCCCCCCCC)ccc2C(=O)N1 [PH921] : 3.3
C=C1C=CC(=O)N(C)CC(=O)NCCOc2cc(CCCCCCCCCCCC)ccc2C(=O)N1 [PH466] : 4.3
C=C1/C=C/C(=O)N(C)CC(=O)N[C@@H](CC(=O)N2CCOCC2)COc2cc(CCCCCCCCCCCC)ccc2C(=O)N1 [PH741] : 4.9

Returns the measured Index [3] Selectivity index (IC50 [2]/IC50 [1]) for the input molecule. Input: C=C1/C=C/C(=O)N(C)CC(=O)N[C@@H](CC(=O)OC)COc2cc(CCCCCCCCCCCC)ccc2C(=O)N1 [PH832] 1.1

Further, for CCCCCCCCCCCCc1ccc2c(c1)OC[C@H](CCCCNC(=O)OC(C)(C)C)NC(=O)CN(C)C(=O)/C=C/[C@H](CO)NC2=O [PH908] ? 1.2

Further, for C=C1/C=C/C(=O)N(C)CC(=O)N2CC(F)(F)C[C@H]2COc2cc(CCCCCCCCCCCC)ccc2C(=O)N1 [PH905] ? 1.0

Further, for Cn1c(COP(=O)(NCCBr)NCCBr)cnc1[N+](=O)[O-] [TH302, Evofosfamide, reference compound] ? 6.9

Further, for Nc1n[n+]([O-])c2ccccc2[n+]1[O-] [Tirapazamine, reference compound] ? 4.0
